All figures here come from patent US20140086935A1.

Target: rat TIMP-1 (rat, UniProt P30120 24-217)
Sequence (P30120 24-217 limits assumed): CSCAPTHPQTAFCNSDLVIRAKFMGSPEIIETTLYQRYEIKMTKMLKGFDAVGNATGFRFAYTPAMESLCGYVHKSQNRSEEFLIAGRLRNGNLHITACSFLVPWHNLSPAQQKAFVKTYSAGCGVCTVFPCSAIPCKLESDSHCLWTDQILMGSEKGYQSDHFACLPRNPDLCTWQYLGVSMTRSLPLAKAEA
Test: cell-based or functional assay
Measurement Kind: IC50 in rat protease assay

Binder	Measurement Kind	Recorded Measurement
MS-BW-61 (Fab, V domains shown, Fab, FLAG + Strep-tag II; not tied by name) VH: QVQLVQSGAEVKKPGESLKISCKGSGYSFTSYWIGWVRQMPGKGLEWMGIIYPGDSDTRYSPSFQGQVTISADKSISTAYLQWSSLKASDTAMYYCARIIGDYVIFFDVWGQGTLVTVSS VL: DIALTQPASVSGSPGQSITISCTGTSSDVGGYNYVSWYQQHPGKAPKLMIYDVSNRPSGVSNRFSGSKSGNTASLTISGLQAEDEADYYCQSFDMIHPYVFGGGTKLTVLG	IC50 in rat protease assay	> 100 nM
MS-BW-14 (Fab, V domains shown, Fab, FLAG + Strep-tag II; not tied by name; also called MS-BW-14 Fab) VH: QVQLVQSGAEVKKPGSSVKVSCKASGGTFSSYAISWVRQAPGQGLEWMGGIIPIFGTANYAQKFQGRVTITADESTSTAYMELSSLRSEDTAVYYCARWSDQSYHYYWHPYFDVWGQGTLVTVSS VL: DIVLTQPPSVSGAPGQRVTISCSGSSSNIGSNYVSWYQQLPGTAPKLLIYDNNQRPSGVPDRFSGSKSGTSASLAITGLQSEDEADYYCQSWDLEPYVFGGGTKLTVLG	IC50 in rat protease assay	14 nM
MS-BW-56 (Fab, V domains shown, Fab, FLAG + Strep-tag II; not tied by name) VH: QVQLVQSGAEVKKPGSSVKVSCKASGGTFSSYAISWVRQAPGQGLEWMGGIIPIFGTANYAQKFQGRVTITADESTSTAYMELSSLRSEDTAVYYCARQEWYMDYWGQGTLVTVSS VL: DIELTQPPSVSVAPGQTARISCSGDALGDKYASWYQQKPGQAPVLVIYDDSDRPSGIPERFSGSNSGNTATLTISGTQAEDEADYYCQSYDRSMWVFGGGTKLTVLG	IC50 in rat protease assay	> 100 nM
MS-BW-12 (Fab, V domains shown, Fab, FLAG + Strep-tag II; not tied by name) VH: QVQLQQSGPGLVKPSQTLSLTCAISGDSVSSNSAAWNWIRQSPGRGLEWLGRTYYRSKWYNDYAVSVKSRITINPDTSKNQFSLQLNSVTPEDTAVYYCARGYADISFDYWGQGTLVTVSS VL: DIALTQPASVSGSPGQSITISCTGTSSDVGGYNYVSWYQQHPGKAPKLMIYDVSNRPSGVSNRFSGSKSGNTASLTISGLQAEDEADYYCQSYDMIARYPVFGGGTKLTVLG	IC50 in rat protease assay	> 300 nM
